Provide the recorded TGI for the entries that follow.
system: HT29 colon; test: NCI tumour cell line growth inhibition, 48 h
Only the number, expressed in µM, is required.

Prompt line: Observed TGI on HT29 colon for `C[C@@H](Nc1nc(Nc2ccc(F)c(Cl)c2)nc2ccccc12)C1CC1` , please.
Response line: 11.7

Prompt line: Missing value: TGI, HT29 colon, entry `C=C1C(=O)O[C@H]2[C@H]1CC/C(COC(=O)NCc1ccc(Cn3c(=O)sn(-c4ccccc4)c3=O)cc1)=C\CC[C@@]1(C)O[C@@H]21` . Fill in?
Response line: 4.14

Prompt line: Query the reported TGI for HT29 colon; item: `CN(C)CC/C(=N\Nc1ccc(Cl)cc1Cl)c1ccccc1`
Response line: 28.9
